B1: DCAF4 (parent)
chain: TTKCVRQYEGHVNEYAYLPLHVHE

variants of: B1; assay: protein stability index of a GFP-peptide fusion (GPS, HEK-293T) (PSI 1-6); higher = more stable; conditions: c terminus: a fixed tail appended;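 further: lentivirally expressed fusions sorted by FACS into six bins by GFP to DsRed ratio, PSI derived from sequencing read proportions per bin multiplied by bin number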
Quantity: protein stability index
Format: numeric value only, no unit, no commentary.

Request: For the variant TTKCVRQYEGNVNEYAYLPLHVHE [H11N] , what protein stability index is on record?
Result: 2.96

Request: Also need TTKCVRQYEGHVNEYAYLDLHVHE [P19D] , thanks.
Result: 3.02

Request: Next up: TTKEVRQYEGHVNEYAYLPLHVHE [C4E]
Result: 3.59

Request: Would you kindly repeat that for TTKCVRQYEGHVGEYAYLPLHVHE [N13G] ?
Result: 3.04

Request: Follow-up item: TTKCVRQYEGHVNEYAYLPLDVHE [H21D]
Result: 3.55

Request: Repeat for the following variant: TTKCVEQYEGHVNEYAYLPLHVHE [R6E]
Result: 3.12

Request: Also TTKCVRQYEGHVFEYAYLPLHVHE [N13F] ?
Result: 2.02

Request: For TTKCVRQYEGHVNEYAYLPLHVTE [H23T] then?
Result: 2.37

Request: What do you get for TTMCVRQYEGHVNEYAYLPLHVHE [K3M] ?
Result: 2.07

Request: Same again, this time with TTKCVQQYEGHVNEYAYLPLHVHE [R6Q]
Result: 3.31

Request: Another variant: TLKCVRQYEGHVNEYAYLPLHVHE [T2L]
Result: 2.15

Request: How about TTKCVRQYEGHVNEYQYLPLHVHE [A16Q] ?
Result: 3.01

Request: Check TTKCVRQREGHVNEYAYLPLHVHE [Y8R] too.
Result: 2.94

Request: Next variant up: TTKCVRQYEGHVNEYAYWPLHVHE [L18W]
Result: 2.28

Request: # repeat for TTKCVYQYEGHVNEYAYLPLHVHE [R6Y]
Result: 2.4

Request: Next record, please: TTQCVRQYEGHVNEYAYLPLHVHE [K3Q]
Result: 3.25

Request: Note, next up: YTKCVRQYEGHVNEYAYLPLHVHE [T1Y]
Result: 1.69

Request: Now give it for TTKCVRQYEGHVNEYAYLPLHVHL [E24L] too.
Result: 2.14

Request: // next record TTKCVRQYEGHVPEYAYLPLHVHE [N13P]
Result: 3.12

Numbers sourced from the supplement of paper PMC10567573.
